Test system: HCV genotype 1b replicon
Assay: HCV replicon assay (HCV 1b_Huh-Luc/Neo-ET cell line, luciferase readout)
Assay type: cell-based
Conditions: Hepatitis C virus; bicistronic genotype 1b replicon in Huh 7 cells, 72 h incubation, luciferase enzyme activity; read-out: Inhibition of HCV genotype 1b
Entries and their EC50

These recorded examples may help you get a feel for the data.
>>> result("CC(C)[C@@H](NC(=O)OC(C)(C)C)C(=O)N1CCC[C@H]1C(=O)Nc1ccc(-c2ccc(-c3cnc([C@@H]4CCCN4C(=O)[C@H](NC(=O)OC(C)(C)C)C(C)C)[nH]3)cc2)cc1 [Compound 15]")
"1 to 9.9 nM"
>>> result("CC(C)(C)OC(=O)N[C@@H](C(=O)N1CCC[C@H]1c1ncc(-c2ccc(Oc3ccc(-c4cnc([C@@H]5CCCN5C(=O)[C@H](NC(=O)OC(C)(C)C)c5ccccc5)[nH]4)cc3)cc2)[nH]1)c1ccccc1 [Compound 52]")
"< 1 nM"

Attention now shifts to the item below.
Exam item: # query: EC50 | item C[C@@H](NC(=O)OC(C)(C)C)C(=O)N1CCOC[C@H]1C(=O)Nc1ccc(-c2ccc(-c3cnc([C@@H]4COCCN4C(=O)[C@@H](C)NC(=O)OC(C)(C)C)[nH]3)cc2)cc1 [Compound 17] | system: HCV genotype 1b replicon
Marked response: 10 to 999 nM
